- System: M14
- assay_method_text: NCI tumour cell line growth inhibition, 48 h
Activity calls are given as the source filed them. No stated cut-off is given here; in the data, active = GI50 up to about 1.1 µM and inactive = higher.
The reply should be one of these categories: active, inactive

Worked set:
[
  {
    "compound": "Cc1cc(N(CCC#N)CCC#N)ccc1/C=C(\\NC(=O)/C=C/c1ccccc1)NC(=O)Nc1ccc(Cl)cc1",
    "class": "inactive"
  },
  {
    "compound": "COC1=CC(=O)C2[C@H]3Cc4ccccc4[C@H]3C2(C)C1=O (stereo not given in full)",
    "class": "inactive"
  },
  {
    "compound": "Cc1ccc(Sc2ccccc2N)cc1",
    "class": "inactive"
  },
  {
    "compound": "CCCN(CCC)c1c([N+](=O)[O-])cc(C(=O)N(C)C)cc1[N+](=O)[O-]",
    "class": "inactive"
  },
  {
    "compound": "CCCCCCN(CCCCCC)C(=S)N/N=C(\\C)c1ccccn1",
    "class": "active"
  }
]

Input: I'd appreciate the recorded outcome for COc1ccc2c(c1)C1c3ccccc3CCN1CCC2 (stereo not given) from this test.
Output: inactive

Input: I'd appreciate the recorded outcome for `OC1(C(Sc2ccccc2)Sc2ccccc2)CCCCCC1` from this test.
Output: inactive

Input: I'd appreciate the recorded outcome for `O=C1CN(C(=O)c2ccccc2)Cc2[nH]c3ccccc3c21` from this test.
Output: inactive

Input: I'd appreciate the recorded outcome for CCN(CC)C(c1ccc(N(C)C)cc1)C(c1ccc(N(C)C)cc1)N(CC)CC (stereo not given) from this test.
Output: inactive

Input: I'd appreciate the recorded outcome for CCC1=CCC(P(=O)(c2ccccc2)c2ccccc2)CC1C (stereo not given) from this test.
Output: inactive
